Attribution: ChEMBL document CHEMBL1134418

target: UniProt:P10415; test: Effect on DEVD cleavage by DEVDase assay without anti-Fas antibody using Bcl-2 overexpressing HeLa cells; 3 fold activation concentration (AC3); type: functional, cell-based
Sequence (P10415 whole entry): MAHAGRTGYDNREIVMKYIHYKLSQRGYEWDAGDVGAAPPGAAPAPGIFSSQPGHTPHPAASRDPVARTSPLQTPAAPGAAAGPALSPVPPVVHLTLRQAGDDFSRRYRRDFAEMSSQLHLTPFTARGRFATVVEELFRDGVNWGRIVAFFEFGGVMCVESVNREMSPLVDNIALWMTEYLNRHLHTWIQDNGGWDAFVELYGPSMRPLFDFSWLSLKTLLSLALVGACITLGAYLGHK
Observable: AC3 (µM)
Respond numerically; units are µM and should not be typed.

Query block: # AC3 lookup, item COC(=O)NC1[C@H](C)O[C@@H](O[C@H]2C/C=C(\C)[C@@H]3C=C[C@@H]4[C@@H](O[Si](C)(C)C(C)(C)C)[C@@H](C)C[C@H](C)[C@H]4[C@]3(C)/C(O)=C3\C(=O)O[C@]4(CC(C=O)=C[C@H](O)[C@H]4/C=C\2C)C3=O)CC1(C)[N+](=O)[O-] (some centres not stated)
Result block: 1.8
